Reference for the values: BindingDB's records for doi:10.3109/14756366.2012.677838

Data export: pIC50 values recorded with Carbonic anhydrase 1 (Homo sapiens).
Sequence (P00915 whole entry): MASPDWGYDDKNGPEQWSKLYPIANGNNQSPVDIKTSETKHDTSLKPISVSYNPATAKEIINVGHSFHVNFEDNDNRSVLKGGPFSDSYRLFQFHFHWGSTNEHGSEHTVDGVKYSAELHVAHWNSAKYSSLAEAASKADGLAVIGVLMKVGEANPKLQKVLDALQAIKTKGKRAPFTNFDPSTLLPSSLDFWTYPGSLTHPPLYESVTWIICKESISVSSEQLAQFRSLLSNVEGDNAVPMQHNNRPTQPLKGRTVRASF
To interpret pIC50, take it as minus log10 of a concentration measured in moles per litre.

Problem: So what does the record say about pIC50 for COCCN1CN(Cc2cc(=O)oc3c(O)c(O)ccc23)c2ccccc21 ?
Result: 4.49

Problem: Item: CCOCCN1CN(Cc2cc(=O)oc3c(O)c(O)ccc23)c2ccccc21
Result: 4.48

----------
List of IC50 tested on Carbonic anhydrase 2 (Homo sapiens).

Problem: Write down the reported IC50 of COCCN1CN(Cc2cc(=O)oc3c(O)c(O)ccc23)c2ccccc21 , test system: Carbonic anhydrase 2 (Homo sapiens).
Result: 41.4 µM

Problem: And for Cc1cccc(CN2CN(Cc3cc(=O)oc4c(O)c(O)ccc34)c3ccccc32)c1 ?
Result: 28.9 µM

Problem: What do you have for CCOCCN1CN(Cc2cc(=O)oc3c(O)c(O)ccc23)c2ccccc21 ?
Result: 33.2 µM
